Biological target: Melanocortin receptor 3 (Mus musculus, UniProt P33033)
Sequence (P33033 whole entry): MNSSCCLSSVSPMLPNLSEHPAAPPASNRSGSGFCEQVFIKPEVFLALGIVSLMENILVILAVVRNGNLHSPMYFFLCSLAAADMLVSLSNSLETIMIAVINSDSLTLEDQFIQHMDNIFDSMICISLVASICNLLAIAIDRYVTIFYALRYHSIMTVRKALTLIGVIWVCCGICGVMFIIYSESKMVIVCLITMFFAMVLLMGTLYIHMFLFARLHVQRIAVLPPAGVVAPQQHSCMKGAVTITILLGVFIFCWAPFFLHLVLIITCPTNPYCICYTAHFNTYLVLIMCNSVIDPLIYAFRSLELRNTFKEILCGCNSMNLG
Assay: Agonist activity at mouse MC3R expressed in HEK293 cells by CRE/beta-galactosidase reporter gene assay
observable: pEC50
Schema: pEC50 number; meaning minus log10 of the concentration expressed in molar units.

For the molecule `CC(=O)N[C@@H](Cc1cnc[nH]1)C(=O)N[C@H](Cc1ccc(O)cc1)C(=O)N[C@@H](CCCNC(=N)N)C(=O)N[C@@H](Cc1c[nH]c2ccccc12)C(N)=O` , what pEC50 is on record?
4.90

###

Target: Melanocortin receptor 5 (Mus musculus)
Sequence (P41149 whole entry): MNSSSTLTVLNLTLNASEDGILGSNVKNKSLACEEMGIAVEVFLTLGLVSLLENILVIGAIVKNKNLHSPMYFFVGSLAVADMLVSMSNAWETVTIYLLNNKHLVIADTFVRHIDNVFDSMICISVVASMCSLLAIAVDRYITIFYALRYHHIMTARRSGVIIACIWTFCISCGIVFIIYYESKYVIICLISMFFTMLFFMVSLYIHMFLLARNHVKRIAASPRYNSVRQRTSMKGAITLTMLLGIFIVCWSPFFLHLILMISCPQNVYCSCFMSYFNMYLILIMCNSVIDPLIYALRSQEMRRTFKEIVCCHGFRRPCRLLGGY
Test: Agonist activity at mouse MC5R expressed in HEK293 cells by CRE/beta-galactosidase reporter gene assay
observable: EC50 (nM)
Give the number; nM is assumed, so skip it.

For the compound `CC(=O)N[C@@H](Cc1cnc[nH]1)C(=O)N[C@H](Cc1ccccc1)C(=O)N[C@@H](CCCN=C(N)N)C(=O)N[C@@H](Cc1c[nH]c2ccccc12)C(N)=O` , what EC50 is on record?
3.26

For the compound `CC(=O)N[C@@H](Cc1cnc[nH]1)C(=O)N[C@H](Cc1ccc(N)cc1)C(=O)N[C@@H](CCCN=C(N)N)C(=O)N[C@@H](Cc1c[nH]c2ccccc12)C(N)=O` , what EC50 is on record?
226

More entries:
For the compound `CC(=O)N[C@@H](Cc1cnc[nH]1)C(=O)N[C@H](Cc1ccc(C(=O)c2ccccc2)cc1)C(=O)N[C@@H](CCCNC(=N)N)C(=O)N[C@@H](Cc1c[nH]c2ccccc12)C(N)=O` , what EC50 is on record?
51.1

For the compound `CC(=O)N[C@@H](Cc1cnc[nH]1)C(=O)N[C@H](Cc1ccc(O)cc1)C(=O)N[C@@H](CCCNC(=N)N)C(=O)N[C@@H](Cc1c[nH]c2ccccc12)C(N)=O` , what EC50 is on record?
730
